The reader will find reported IC50 values listed item by item below.
# TEST SYSTEM: Dimer of Gag-Pol polyprotein [501-599] (Human immunodeficiency virus 1)
# Construct: 501-599
# PROTOCOL DESCRIPTION: Protease Inhibition Assay
Express your answer in nM, writing the number without its unit.

Q: // IC50 lookup, key: CC(C)CN(C(CO)CCCCNC(=O)[C@@H](NC(=O)c1cccnc1)C(c1ccccc1)c1ccccc1)S(=O)(=O)c1ccc(N)cc1 (some centres undefined)
A: 0.68

Q: Follow-up item: CC(C)CN(C(CO)CCCCNC(=O)[C@@H](NC(=O)c1ccc(O)cc1)C(c1ccccc1)c1ccccc1)S(=O)(=O)c1ccc(N)cc1 (some centres undefined)
A: 0.53

Q: Follow-up item: CC(C)CN(C(CO)CCCCNC(=O)[C@@H](NC(=O)c1ccncc1)C(c1ccccc1)c1ccccc1)S(=O)(=O)c1ccc(N)cc1 (some centres undefined)
A: 0.65

Others:
Q: // IC50 lookup, key: CC(C)CN(C(CO)CCCCNC(=O)[C@@H](NC(=O)c1ccc[nH]1)C(c1ccccc1)c1ccccc1)S(=O)(=O)c1ccc(N)cc1 (some centres undefined)
A: 0.43
